# H1.0 immunofluorescence intensity per entry
# System: TDF;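 also: TDF is a line of transformed human dermal fibroblasts of mesenchymal origin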
# ASSAY SUMMARY: H1.0 immunofluorescence intensity relative to DMSO (% of DMSO); higher = stronger H1.0 induction, active = 120 or more
# MEASUREMENT SETUP: concentration: 10 µM; 24 h
Just the number, please.

Some compounds with recorded H1.0 immunofluorescence intensity:
>>> df
                                   compound                     property_label  result_number
0  COc1ccc(CC(N)C(=O)NC2C(CO)OC(n3cnc4c(N(C)C)ncnc43)C2O)cc1 (stereo not drawn)  H1.0 immunofluorescence intensity             94
1  Cc1ccc(OCCSc2ncccn2)c(Br)c1 [2-{[2-(2-bromo-4-methylphenoxy)ethyl]sulfanyl}pyrimidine]  H1.0 immunofluorescence intensity             94
2  COc1cc2nc(N3CCN(C(=O)C4=CC5C=CC4CC5)CC3)nc(N)c2cc1OC (stereo not drawn)  H1.0 immunofluorescence intensity           95.3
3  NC(=O)c1noc([C@H](CCCC2CCCCC2)CC(=O)NO)n1  H1.0 immunofluorescence intensity           99.6
4  CNC(=O)C1OC(n2cnc3c(N)ncnc32)C(O)C1O (stereo not drawn)  H1.0 immunofluorescence intensity            104
5  OCC1NC(CO)C(O)C1O [(2R,5R)-Bis(hydroxymethyl)-(3R,4R)-dihydroxypyrrolidine]  H1.0 immunofluorescence intensity           91.3
6  CCN1CCCC1CNC(=O)c1cc(S(=O)(=O)CC)c(N)cc1OC (stereo not drawn) [Amisulpride]  H1.0 immunofluorescence intensity            104

Then this compound:
Given the compound O=C(CCCc1ccc(-c2ccccc2F)cc1)Nc1ccc(O)cc1 , what is its reported H1.0 immunofluorescence intensity?
157
